Assay: Pharmacokinetics after 21 days dosing in the efficacy study (plasma, tumor and brain concentrations; plasma AUC at steady state), Example 14
Assay type: in vivo, female BALB/c nude mice
Details: mouse, plasma, po; 0.75 mg/kg p.o. BID x 21 days; 4 h; mean ± SEM; read-out: Concentration in Plasma
Test Readout: concentration at 4 h (ng/mL)
Report the value in ng/mL with no unit label.

Give the measured concentration at 4 h of CCN(C)S(=O)(=O)Nc1ccc(F)c(Oc2ccc3ncn(C4CC5(CCN(C6CC7(C6)CN(c6cc8c(cc6F)c(N6CCC(=O)NC6=O)nn8C)C7)CC5)C4)c(=O)c3c2)c1C#N (stereo not shown) [Compound 141] .
663

###

Assay: Example 7 pharmacokinetics assay for efficacy study (plasma, liver)
Format: in vivo, BALB/c nude mice
Conditions: mouse, plasma, po, 10 mg/kg, p.o., QD × 14 days, read-out: Concentration in Plasma (mean ± SEM)
Test Readout: concentration at 6 h

Give the measured concentration at 6 h of CCN(C)S(=O)(=O)Nc1ccc(F)c(Oc2ccc3ncn(C4CC5(CCN(C6CC7(C6)CN(c6cc8c(cc6F)c(N6CCC(=O)NC6=O)nn8C)C7)CC5)C4)c(=O)c3c2)c1C#N (stereo not shown) [Compound 141] .
11000 ng/mL

###

Test: Pharmacokinetics after 21 days dosing in the efficacy study (plasma, tumor and brain concentrations; plasma AUC at steady state), Example 14
Assay type: in vivo, female BALB/c nude mice
Details: mouse, brain, po; 6 mg/kg p.o. QD x 21 days; 4 h; mean ± SEM; read-out: Concentration in Brain
Test Readout: concentration at 4 h (ng/g)
Report the value in ng/g with no unit label.

Give the measured concentration at 4 h of CCN(C)S(=O)(=O)Nc1ccc(F)c(Oc2ccc3ncn([C@H]4COC5(CCN(C6CC7(C6)CN(c6cc8c(cc6F)c(N6CCC(=O)NC6=O)nn8C)C7)CC5)C4)c(=O)c3c2)c1C#N [Compound 26] .
116

###

Assay: Pharmacokinetics in female BALB/c nude mice bearing A375 xenografts, 1 day dosing (PK and PD study): plasma, tumor and brain concentrations, AUC
Type: in vivo
Settings: mouse, plasma, po, 0.75 mg/kg, 0.75 mg/kg p.o. BID × 1 day; post 2nd dose; 0.5 h; read-out: Mean Concentration in Plasma ± SEM
Test Readout: concentration at 0.5 h (ng/mL)
Report the value in ng/mL with no unit label.

Give the measured concentration at 0.5 h of CCN(C)S(=O)(=O)Nc1ccc(F)c(Oc2ccc3ncn(C4CC5(CCN(C6CC7(C6)CN(c6cc8c(cc6F)c(N6CCC(=O)NC6=O)nn8C)C7)CC5)C4)c(=O)c3c2)c1C#N (stereo not shown) [Compound 141] .
502

###

Reported values of GI50 for individual entries
Tested on: A375-NRAS^Q61K cells
Assay: CTGlo Cell Viability Assay, A375-NRAS^Q61K (A375.11) cells, 96 hours
Type: cell-based, human
Details: Homo sapiens, 96 h, A375.11 (A375-NRAS^Q61K) cells

- Molecule: "CCN(C)S(=O)(=O)Nc1ccc(F)c(C(=O)c2ccc3ncn([C@H]4COC5(CCN(C6CCC(c7cc8c(cc7F)c(N7CCC(=O)NC7=O)nn8C)CC6)CC5)C4)c(=O)c3c2)c1F (some centres unmarked) [Compound 208]"
  GI50: "< 1 µM"
- Molecule: "CO[C@@H]1CCN(S(=O)(=O)Nc2ccc(F)c(Oc3ccc4ncc(C5CC6(CCN(C7CC8(C7)CN(c7cc9c(cc7F)c(N7CCC(=O)NC7=O)nn9C)C8)CC6)C5)nc4c3)c2C#N)C1 (some centres unmarked) [Compound 278]"
  GI50: "< 1 µM"
- Molecule: "CCN(C)S(=O)(=O)Nc1ccc(F)c(Oc2ccc3ncn(C4CC5(CCN(C6CC7(C6)CN(c6ccc(NC8CCC(=O)NC8=O)cc6F)C7)CC5)C4)c(=O)c3c2)c1F (centres unmarked) [Compound 188]"
  GI50: "> 10 µM"
- Molecule: "CCN(C)S(=O)(=O)Nc1ccc(F)c(Oc2ccc3ncn([C@H]4COC5(CCN(C6CC(c7ccc(NC8CCC(=O)NC8=O)cc7F)C6)CC5)C4)c(=O)c3c2)c1C#N (single isomer, unassigned) [Compound 62]"
  GI50: "< 1 µM"

Give the measured GI50 of Cn1nc(N2CCC(=O)NC2=O)c2cc(F)c(N3CC4(CC(N5CCC6(CC5)C[C@@H](n5cnc7ccc(Oc8c(F)ccc(NS(=O)(=O)N9C[C@H]%10C[C@H]%10C9)c8C#N)cc7c5=O)CO6)C4)C3)cc21 [Compound 241] .
1 to 10 µM

###

Experiment: Pharmacokinetics in female BALB/c nude mice bearing A375 xenografts, 1 day dosing (PK and PD study): plasma, tumor and brain concentrations, AUC
Format: in vivo
Settings: mouse, plasma, po, 0.75 mg/kg, 0.75 mg/kg p.o. BID × 1 day; post 2nd dose; 10 h; read-out: Mean Concentration in Plasma ± SEM
Test Readout: concentration at 10 h (ng/mL)
Report the value in ng/mL with no unit label.

Give the measured concentration at 10 h of CCN(C)S(=O)(=O)Nc1ccc(F)c(Oc2ccc3ncn(C4CC5(CCN(C6CC7(C6)CN(c6cc8c(cc6F)c(N6CCC(=O)NC6=O)nn8C)C7)CC5)C4)c(=O)c3c2)c1C#N (stereo not shown) .
111

###

Experiment: Pharmacokinetics after 21 days dosing in the efficacy study (plasma, tumor and brain concentrations; plasma AUC at steady state), Example 14
Assay type: in vivo, female BALB/c nude mice
Details: mouse, plasma, po; 3 mg/kg p.o. QD x 21 days; 10 h; mean ± SEM
Test Readout: concentration at 10 h (ng/mL)
Report the value in ng/mL with no unit label.

Give the measured concentration at 10 h of CCN(C)S(=O)(=O)Nc1ccc(F)c(Oc2ccc3ncn(C4CC5(CCN(C6CC7(C6)CN(c6cc8c(cc6F)c(N6CCC(=O)NC6=O)nn8C)C7)CC5)C4)c(=O)c3c2)c1C#N (stereo not shown) [Compound 141] .
617

###

Biological target: BRAF V600E (Homo sapiens, UniProt P15056+Q96SW2, V600E)
Construct: knock-in of the HiBiT tag to the endogenous BRAF V600E locus; host or cells: A375.10 (A375 clonal line, CRISPR HiBiT knock-in at the endogenous BRAF V600E locus)
Sequence (P15056 whole entry V600E): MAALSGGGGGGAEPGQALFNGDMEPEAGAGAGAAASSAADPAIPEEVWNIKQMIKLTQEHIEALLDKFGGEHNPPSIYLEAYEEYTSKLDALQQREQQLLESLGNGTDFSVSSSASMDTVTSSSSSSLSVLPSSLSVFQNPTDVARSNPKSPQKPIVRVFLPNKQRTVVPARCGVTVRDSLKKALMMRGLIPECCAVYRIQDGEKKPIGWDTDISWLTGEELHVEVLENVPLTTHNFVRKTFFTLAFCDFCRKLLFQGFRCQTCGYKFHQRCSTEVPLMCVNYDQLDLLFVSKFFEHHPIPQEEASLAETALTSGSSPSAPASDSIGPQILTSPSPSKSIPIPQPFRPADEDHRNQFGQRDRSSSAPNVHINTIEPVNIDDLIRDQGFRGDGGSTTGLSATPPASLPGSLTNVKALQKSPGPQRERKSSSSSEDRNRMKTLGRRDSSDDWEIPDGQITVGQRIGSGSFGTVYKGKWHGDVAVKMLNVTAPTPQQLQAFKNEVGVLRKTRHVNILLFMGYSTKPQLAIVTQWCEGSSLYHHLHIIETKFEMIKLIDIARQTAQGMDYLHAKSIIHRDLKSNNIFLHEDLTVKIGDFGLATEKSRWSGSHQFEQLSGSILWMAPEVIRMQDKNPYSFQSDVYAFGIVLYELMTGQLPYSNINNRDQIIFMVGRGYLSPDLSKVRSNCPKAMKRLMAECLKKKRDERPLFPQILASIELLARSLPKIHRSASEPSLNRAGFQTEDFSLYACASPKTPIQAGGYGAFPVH
Sequence (Q96SW2 whole entry): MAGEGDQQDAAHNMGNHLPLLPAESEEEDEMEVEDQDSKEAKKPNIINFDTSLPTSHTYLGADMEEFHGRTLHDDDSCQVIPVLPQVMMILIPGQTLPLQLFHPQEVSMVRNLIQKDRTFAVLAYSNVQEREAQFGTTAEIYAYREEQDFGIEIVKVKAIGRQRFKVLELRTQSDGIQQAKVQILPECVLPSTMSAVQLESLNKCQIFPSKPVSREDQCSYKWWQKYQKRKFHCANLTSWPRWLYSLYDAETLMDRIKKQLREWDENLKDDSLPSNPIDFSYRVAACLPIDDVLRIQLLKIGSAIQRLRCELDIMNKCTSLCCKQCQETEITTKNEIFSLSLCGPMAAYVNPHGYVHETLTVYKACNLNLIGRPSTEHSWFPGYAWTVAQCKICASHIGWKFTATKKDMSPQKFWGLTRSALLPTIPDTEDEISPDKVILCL
Sequence (Q16531 whole entry partner): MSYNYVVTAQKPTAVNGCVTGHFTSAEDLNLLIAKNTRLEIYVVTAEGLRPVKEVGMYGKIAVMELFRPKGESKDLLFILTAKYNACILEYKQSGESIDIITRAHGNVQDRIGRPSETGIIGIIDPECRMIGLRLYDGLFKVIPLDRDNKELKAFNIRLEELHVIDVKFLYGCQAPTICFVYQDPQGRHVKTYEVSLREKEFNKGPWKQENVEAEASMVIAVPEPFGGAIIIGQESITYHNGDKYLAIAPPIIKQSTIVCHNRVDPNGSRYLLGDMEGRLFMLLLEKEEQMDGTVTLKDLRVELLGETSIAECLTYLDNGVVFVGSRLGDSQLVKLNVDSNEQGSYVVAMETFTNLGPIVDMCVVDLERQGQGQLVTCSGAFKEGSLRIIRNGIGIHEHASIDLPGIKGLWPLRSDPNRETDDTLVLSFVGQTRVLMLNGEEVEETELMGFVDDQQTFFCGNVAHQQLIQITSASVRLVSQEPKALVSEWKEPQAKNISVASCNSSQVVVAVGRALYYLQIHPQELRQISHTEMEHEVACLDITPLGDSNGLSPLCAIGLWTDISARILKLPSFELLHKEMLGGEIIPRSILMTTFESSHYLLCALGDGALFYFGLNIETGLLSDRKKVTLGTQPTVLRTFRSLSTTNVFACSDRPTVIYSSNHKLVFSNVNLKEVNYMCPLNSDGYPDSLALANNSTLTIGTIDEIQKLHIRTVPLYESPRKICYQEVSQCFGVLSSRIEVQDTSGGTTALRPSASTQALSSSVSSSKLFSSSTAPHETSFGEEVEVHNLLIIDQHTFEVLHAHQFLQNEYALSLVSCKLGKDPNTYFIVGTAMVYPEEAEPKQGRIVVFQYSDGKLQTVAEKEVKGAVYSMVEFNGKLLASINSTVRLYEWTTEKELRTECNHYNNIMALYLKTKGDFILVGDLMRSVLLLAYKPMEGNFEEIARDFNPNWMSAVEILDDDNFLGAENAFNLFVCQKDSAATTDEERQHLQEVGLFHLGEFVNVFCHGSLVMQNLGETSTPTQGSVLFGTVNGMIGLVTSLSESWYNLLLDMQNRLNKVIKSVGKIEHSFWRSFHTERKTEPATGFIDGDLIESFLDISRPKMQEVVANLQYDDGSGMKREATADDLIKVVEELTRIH
Assay: BRAF V600E HiBiT Degradation Assay
Type: cell-based
Details: A375.10 cells, BRAF V600E, 2 hours; read-out: HiBiT-Degradation A375.10 BRAF 2 hours DC50
Test Readout: DC50

- Compound: "CC(C)S(=O)(=O)Nc1ccc(F)c(Oc2ccc3ncn([C@H]4COC5(CCN(C6CC7(C6)CN(c6cc8c(cc6F)c(N6CCC(=O)NC6=O)nn8C)C7)CC5)C4)c(=O)c3c2)c1C#N [Compound 134]"
  Result: "< 1 µM"
- Compound: "Cn1nc(N2CCC(=O)NC2=O)c2cc(F)c(C3CCC(N4CCC5(CC4)C[C@@H](n4cnc6ccc(Oc7c(F)ccc(NS(=O)(=O)N8CC[C@@H](F)C8)c7C#N)cc6c4=O)CO5)CC3)cc21 (single isomer, unassigned) [Compound 121]"
  Result: "< 1 µM"

Query compound follows.
Give the measured DC50 of CCN(C)S(=O)(=O)Nc1ccc(F)c(Oc2ccc3ncn(C4CC5(C4)CN(CC4CCN(c6cc7c(cc6F)c(N6CCC(=O)NC6=O)nn7C)CC4)C5)c(=O)c3c2)c1C#N [Compound 296] .
< 1 µM

###

Test system: A375 human melanoma xenografts
Test: Example 6 efficacy study in A375 human melanoma xenografts (tumor volume, T/C, TGI)
Format: in vivo, BALB/c nude mice
Details: 10 mg/kg, p.o., BID × 21 days; day 21; Mean ± SEM
Test Readout: Tumor volume (mm^3)
Report the value in mm^3 with no unit label.

Below, each entry is followed by its recorded Tumor volume result.
- Molecule: "Cn1nc(N2CCC(=O)NC2=O)c2cc(F)c(C3CCC(N4CCC5(CC4)CC(n4cnc6ccc(Oc7c(F)ccc(NS(=O)(=O)C8CCCC8)c7C#N)cc6c4=O)C5)CC3)cc21 (single isomer, unassigned) [Compound 93]"
  Test Readout: "Tumor volume"
  Numeric Value: 73
- Molecule: "CCN(C)S(=O)(=O)Nc1ccc(F)c(Oc2ccc3ncn([C@H]4COC5(CCN(C6CC(c7cc8c(cc7F)c(N7CCC(=O)NC7=O)nn8C)C6)CC5)C4)c(=O)c3c2)c1C#N (single isomer, unassigned) [Compound 70]"
  Test Readout: "Tumor volume"
  Numeric Value: 19
- Molecule: "CCN(C)S(=O)(=O)Nc1ccc(F)c(Oc2ccc3ncn(C4CC5(CCN(C6CCC(c7cc8c(cc7F)c(N7CCC(=O)NC7=O)nn8C)CC6F)CC5)C4)c(=O)c3c2)c1C#N (single isomer, unassigned) [Compound 83]"
  Test Readout: "Tumor volume"
  Numeric Value: 15

Query molecule follows.
Give the measured Tumor volume of CCN(C)S(=O)(=O)Nc1ccc(F)c(Oc2ccc3ncc([C@@H]4COC5(CCN(C6CCC(c7cc8c(cc7F)c(N7CCC(=O)NC7=O)nn8C)CC6)CC5)C4)nc3c2)c1C#N (single isomer, unassigned) [Compound 54] .
90

Data provenance: patent US20260297060A1
